test system: WSU-DLCL2 (human diffuse large B-cell lymphoma); assay: Cell viability (CellTiter-Glo), WSU-DLCL2; format: cell-based; settings: WSUDLCL2, sensitive group, 3-4 days of culture, n=3, read-out: Tigecycline IC50
Recorded metric: IC50 (nM)

Compound | Numeric readout
CN(C)c1cc(NC(=O)CNC(C)(C)C)c(O)c2c1C[C@H]1C[C@H]3[C@H](N(C)C)C(O)=C(C(N)=O)C(=O)[C@@]3(O)C(O)=C1C2=O [Tigecycline, tigecycline] | 1360

---

test system: NCI-H82 (Con) cell (transfected with empty virus vector); assay: Cell viability (CellTiter-Glo), control NCI-H82 (Con); assay type: cell-based; details: Homo sapiens, n=3, read-out: IC50 value of tigecycline on control NCI-H82 cell (NCI-H82 (Con))
pIC50: −log10 of the molar value.
Recorded metric: pIC50

Smiles text | Recorded metric | Numeric readout
CN(C)c1cc(NC(=O)CNC(C)(C)C)c(O)c2c1C[C@H]1C[C@H]3[C@H](N(C)C)C(O)=C(C(N)=O)C(=O)[C@@]3(O)C(O)=C1C2=O | pIC50 | 6.12

---

System: 786-O (clear cell renal cell adenocarcinoma cell)
Test: Cell viability (CellTiter-Glo), 786-O
Type: cell-based
Settings: Homo sapiens, 786-0, insensitive group, 3-4 days of culture, n=3, read-out: Tigecycline IC50
Protocol: The inhibitory effect of tigecycline on various tumor cell lines was detected using cell activity detection reagent. Cell viability was detected using the Promega CellTiter-Glo kit, cell viability was determined by directly measuring intracellular ATP content. In the experiment, the IC50 value of tigecycline on various tumor cell lines was determined. Each tumor cell was cultured separately in relevant medium (+p/s), and was incubated for 3 h, then the gradient diluted tigecycline was added. […]
pIC50: −log10 of the molar value.
Recorded metric: pIC50

Smiles text | Numeric readout
CN(C)c1cc(NC(=O)CNC(C)(C)C)c(O)c2c1C[C@H]1C[C@H]3[C@H](N(C)C)C(O)=C(C(N)=O)C(=O)[C@@]3(O)C(O)=C1C2=O | 4.57

---

Test system: CFPAC-1 (human pancreatic cancer cell)
Assay: Cell viability (CellTiter-Glo), CFPAC-1
Assay type: cell-based
Settings: insensitive group, 3-4 days of culture, n=3, read-out: Tigecycline IC50
Procedure: The inhibitory effect of tigecycline on various tumor cell lines was detected using cell activity detection reagent. Cell viability was detected using the Promega CellTiter-Glo kit, cell viability was determined by directly measuring intracellular ATP content. In the experiment, the IC50 value of tigecycline on various tumor cell lines was determined. Each tumor cell was cultured separately in relevant medium (+p/s), and was incubated for 3 h, then the gradient diluted tigecycline was added. […]

Smiles text | IC50
CN(C)c1cc(NC(=O)CNC(C)(C)C)c(O)c2c1C[C@H]1C[C@H]3[C@H](N(C)C)C(O)=C(C(N)=O)C(=O)[C@@]3(O)C(O)=C1C2=O | 24.8 µM
